# Lookup of reported MIC keyed by entry
System: B. cereus
experiment: Broth microdilution MIC/MBC, B. cereus
Format: cell-based
stated-conditions: Bacillus cereus, NRS201, B. cereus NRS 201 NR-2488; read-out: MIC
Numbers only; they are read as µM.

These recorded examples may help you get a feel for the data.
1) O=C(O)[C@H](Cc1ccccc1)N1C(=O)/C(=C/c2cccc(Oc3ccc(Cl)c(Cl)c3)c2)SC1=S	4
2) O=C(O)[C@H](Cc1ccccc1)N1C(=O)/C(=C/c2cccc(-c3ccc(Cl)c(Cl)c3)c2)SC1=S	4
3) O=C(O)[C@@H](Cc1ccccc1)N1C(=O)/C(=C/c2cccc(Oc3ccc(F)cc3)c2)SC1=S	8

Next up:
Exercise: If you can, please state the reported MIC value of "O=C(O)[C@H](Cc1ccccc1)N1C(=O)/C(=C/c2cccc(OC/C=C/c3ccc(Cl)c(Cl)c3)c2)SC1=S" .
Key: 4

---

System: B. licheniformis
experiment: Broth microdilution MIC/MBC, B. licheniformis
Format: cell-based
stated-conditions: Bacillus licheniformis, NCIB9375; B. licheniformis Gibson 46 (NCIB 9375) NR-2494; read-out: MIC
Field: label. Allowed values: Condition met (MIC < 4 µM) or Condition not met (MIC >= 4 µM).

1. O=C(O)[C@@H](Cc1ccccc1)N1C(=O)/C(=C/c2cccc(Oc3ccc(F)cc3)c2)SC1=S	Condition not met
2. O=C(O)[C@H](Cc1ccccc1)N1C(=O)/C(=C/c2cccc(-c3ccccc3)c2)SC1=S	Condition not met
3. O=C(O)[C@@H](Cc1ccccc1)N1C(=O)/C(=C/c2cccc(Cc3ccccc3)c2)SC1=S	Condition not met
4. O=C(O)[C@H](Cc1ccccc1)N1C(=O)/C(=C/c2cccc(-c3ccc(Cl)c(Cl)c3)c2)SC1=S	Condition met

Exercise: A record lists CC(=O)NC[C@H]1CN(c2ccc(N3CCOCC3)c(F)c2)C(=O)O1 [Linezolid, linezolid, reference compound] . Is its MIC below 4 µM?
Key: Condition met

Exercise: A record lists "O=C(O)[C@H](Cc1ccccc1)N1C(=O)/C(=C/c2cccc(Cc3ccc(Cl)c(Cl)c3)c2)SC1=S" . Is its MIC below 4 µM?
Key: Condition met

Exercise: A record lists "O=C(O)[C@H](Cc1ccccc1)N1C(=O)/C(=C/c2cccc(Oc3ccc(Cl)c(Cl)c3)c2)SC1=S" . Is its MIC below 4 µM?
Key: Condition met

---

Test system: Vancomycin Resistant Staphylococcus aureus (VRSA)
experiment: Broth microdilution MIC/MBC, VRSA
Format: cell-based
stated-conditions: VRSA, VRSA 3a, read-out: MIC
reported-property: MIC (µM)
Numbers only; they are read as µM.

1) O=C(O)[C@H](Cc1ccccc1)N1C(=O)/C(=C/c2cccc(-c3ccccc3)c2)SC1=S	8
2) O=C(O)[C@H](Cc1ccccc1)N1C(=O)/C(=C/c2cccc(Cc3ccc(Cl)c(Cl)c3)c2)SC1=S	16
3) O=C(O)[C@H](Cc1ccccc1)N1C(=O)/C(=C/c2cccc(OC/C=C/c3ccc(Cl)c(Cl)c3)c2)SC1=S	8

Next up:
Exercise: Give the reported MIC for "O=C(O)[C@@H](Cc1ccccc1)N1C(=O)/C(=C/c2cccc(Oc3ccc(F)cc3)c2)SC1=S" (system: Vancomycin Resistant Staphylococcus aureus (VRSA)).
Key: 16

---

# Lookup of reported MBC keyed by entry
Tested on: B. licheniformis
experiment: Broth microdilution MIC/MBC, B. licheniformis
Assay type: cell-based
stated-conditions: Bacillus licheniformis, NCIB9375; B. licheniformis Gibson 46 (NCIB 9375) NR-2494; read-out: MBC

These recorded examples may help you get a feel for the data.
1) O=C(O)[C@H](Cc1ccccc1)N1C(=O)/C(=C/c2cccc(OC/C=C/c3ccc(Cl)c(Cl)c3)c2)SC1=S	4 µM
2) O=C(O)[C@H](Cc1ccccc1)N1C(=O)/C(=C/c2cccc(Oc3ccc(Cl)c(Cl)c3)c2)SC1=S	2 µM
3) O=C(O)[C@H](Cc1ccccc1)N1C(=O)/C(=C/c2cccc(Cc3ccc(Cl)c(Cl)c3)c2)SC1=S	2 µM
4) O=C(O)[C@@H](Cc1ccccc1)N1C(=O)/C(=C/c2cccc(Oc3ccc(F)cc3)c2)SC1=S	16 µM
5) CC(=O)NC[C@H]1CN(c2ccc(N3CCOCC3)c(F)c2)C(=O)O1 [Linezolid, linezolid, reference compound]	2 µM
6) O=C(O)[C@H](Cc1ccccc1)N1C(=O)/C(=C/c2cccc(-c3ccc(Cl)c(Cl)c3)c2)SC1=S	2 µM
7) O=C(O)[C@H](Cc1ccccc1)N1C(=O)/C(=C/c2cccc(-c3ccccc3)c2)SC1=S	8 µM

Next up:
Exercise: If you can, please state the reported MBC value of "O=C(O)[C@@H](Cc1ccccc1)N1C(=O)/C(=C/c2cccc(Cc3ccccc3)c2)SC1=S" .
Key: 8 µM

---

# Lookup of reported MIC keyed by entry
Tested on: Acinetobacter baumannii
experiment: MIC with/without sub-MIC colistin, Acinetobacter baumannii
Assay type: cell-based
stated-conditions: Acinetobacter baumannii, ATCCBAA747

These recorded examples may help you get a feel for the data.
1) O=C(O)[C@H](Cc1ccccc1)N1C(=O)/C(=C/c2cccc(-c3ccc(Cl)c(Cl)c3)c2)SC1=S	> 128 µM
2) O=C(O)[C@H](Cc1ccccc1)N1C(=O)/C(=C/c2cccc(OC/C=C/c3ccc(Cl)c(Cl)c3)c2)SC1=S	> 128 µM
3) CC(=O)NC[C@H]1CN(c2ccc(N3CCOCC3)c(F)c2)C(=O)O1 [Linezolid, linezolid, reference compound]	> 128 µM
4) O=C(O)[C@H](Cc1ccccc1)N1C(=O)/C(=C/c2cccc(Oc3ccc(Cl)c(Cl)c3)c2)SC1=S	> 128 µM
5) O=C(O)[C@H](Cc1ccccc1)N1C(=O)/C(=C/c2cccc(Cc3ccc(Cl)c(Cl)c3)c2)SC1=S	> 128 µM
6) O=C(O)[C@@H](Cc1ccccc1)N1C(=O)/C(=C/c2cccc(Oc3ccc(F)cc3)c2)SC1=S	> 128 µM

Exercise: If you can, please state the reported MIC value of "O=C(O)[C@@H](Cc1ccccc1)N1C(=O)/C(=C/c2cccc(Cc3ccccc3)c2)SC1=S" .
Key: > 128 µM

---

System: Vancomycin Resistant Staphylococcus aureus (VRSA)
experiment: Broth microdilution MIC/MBC, VRSA
Type: cell-based
stated-conditions: VRSA, VRSA 12, read-out: MBC
# Lookup of reported MBC keyed by entry
Note to self: number, then unit, no commentary.

These recorded examples may help you get a feel for the data.
1) O=C(O)[C@@H](Cc1ccccc1)N1C(=O)/C(=C/c2cccc(Cc3ccccc3)c2)SC1=S	16 µM
2) O=C(O)[C@H](Cc1ccccc1)N1C(=O)/C(=C/c2cccc(Oc3ccc(Cl)c(Cl)c3)c2)SC1=S	32 µM
3) O=C(O)[C@@H](Cc1ccccc1)N1C(=O)/C(=C/c2cccc(Oc3ccc(F)cc3)c2)SC1=S	64 µM

Next up:
Exercise: If you can, please state the reported MBC value of "O=C(O)[C@H](Cc1ccccc1)N1C(=O)/C(=C/c2cccc(-c3ccccc3)c2)SC1=S" .
Key: 16 µM

---

# Lookup of reported MIC keyed by entry
Test system: Candida albicans
experiment: MIC against Candida albicans
Assay type: cell-based
stated-conditions: C. albicans NR 29435, unit from abstract, table prints none, read-out: MIC

These recorded examples may help you get a feel for the data.
1) O=C(O)[C@@H](Cc1ccccc1)N1C(=O)/C(=C/c2cccc(Cc3ccccc3)c2)SC1=S [Rh 7]	> 64 µM
2) O=C(O)[C@@H](Cc1ccccc1)N1C(=O)/C(=C/c2cccc(Oc3ccc(F)cc3)c2)SC1=S [Rh 4]	> 64 µM

Exercise: If you can, please state the reported MIC value of O=C(O)[C@H](Cc1ccccc1)N1C(=O)/C(=C/c2cccc(Oc3ccc(Cl)c(Cl)c3)c2)SC1=S [Rh 1] .
Key: > 64 µM

---

System: Acinetobacter baumannii
experiment: MIC with/without PMBN, Acinetobacter baumannii
Format: cell-based
stated-conditions: Acinetobacter baumannii, ATCCBAA19606
Procedure: The MIC of the rhodanines and control antibiotics, in the presence of a sub-inhibitory concentration of colistin or polymixin B nonapeptide (PMBN), against Gram-negative bacteria was evaluated as described before. The antibacterial activity of the rhodanines was further investigated against E. coli SM1411Δ acrAB, a strain that is deficient in the multidrug-resistant AcrAB efflux pump, as described before.
reported-property: MIC

1. O=C(O)[C@H](Cc1ccccc1)N1C(=O)/C(=C/c2cccc(-c3ccccc3)c2)SC1=S	> 128 µM

Exercise: If you can, please state the reported MIC value of CCCCCCCCCC(=O)N[C@@H](Cc1c[nH]c2ccccc12)C(=O)N[C@H](CC(N)=O)C(=O)N[C@@H](CC(=O)O)C(=O)N[C@@H]1C(=O)NCC(=O)N[C@@H](CCCN)C(=O)N[C@@H](CC(=O)O)C(=O)N[C@H](C)C(=O)N[C@@H](CC(=O)O)C(=O)NCC(=O)N[C@H](CO)C(=O)N[C@@H]([C@H](C)CC(=O)O)C(=O)N[C@@H](CC(=O)c2ccccc2N)C(=O)O[C@@H]1C [Daptomycin, reference compound] .
Key: > 128 µM
